Value source: patent US20050282743A1

target system: GST-DLG1 PDZ domains 1, 2 (Homo sapiens), Q12959
measurement protocol: G' assay; further: key of the grades not given here
quantity measured: Classification (A450 class)
Report the figure in A450 class without appending any unit label.

INPUT: Given the binder HPTDITGLPNLSDPSVSTVV (modifications not checked) [NMDA R2C] , what is its reported Classification?
OUTPUT: 1

INPUT: Given the binder GGEDFKTTNPSKQFDKNAYV (modifications not checked) [claudin 10] , what is its reported Classification?
OUTPUT: 1

INPUT: Given the binder GPVPGEPAKPKTSAHHATFV (modifications not checked) [RGS12 (regulator of G-protein signaling 12] , what is its reported Classification?
OUTPUT: 1

INPUT: Given the binder PYSELNYETSHYPASPDSWV (modifications not checked) [catenin - delta 2] , what is its reported Classification?
OUTPUT: 3
